Values were extracted from PubChem BioAssay (NCI).

# Tested on: ACHN renal
# assay info: NCI tumour cell line growth inhibition, 48 h
For each record, write down the corresponding TGI.

Recorded TGI, per entry:
> print(dat)
                                   molecule  recorded.metric    result
1         CC(C)(C)OC(=O)NCCNC(=O)OCc1ccccc1              TGI  > 100 µM
2  Cn1c(N)c(N=Nc2ccc(S(N)(=O)=O)cc2)c(=O)n(C)c1=O              TGI  > 100 µM
3  O=C(NC(c1ccccc1)C(O)C(=O)OCc1ccc2c(c1)C(=O)c1ccccc1C2=O)c1ccccc1 (stereo not drawn)              TGI   43.7 µM

Parameters: items (list). Returns: TGI for each item.
1. NC(N)=NS(=O)(=O)c1ccc(NC(=O)c2c3ccccc3nc3ccccc23)cc1
2. CC1=C2CC3=C(C)C(=O)O[C@H]3C[C@@H](C)[C@@H]2CC1
3. CCOC(=O)C(Cc1ccc(N(CCCl)CCCl)cc1)NC(=O)C(CC(C)C)NC(C)=O (stereo not drawn)
4. CSc1nc(Cl)c2c(n1)Sc1ncnn1C2O (stereo not drawn)
5. O=c1[nH]/c(=C/c2ccc(OCc3ccccc3)cn2)c(=O)[nH]/c1=C/c1cccnc1

-- reply
1. > 100 µM
2. > 100 µM
3. 1.42 µM
4. 15.4 µM
5. > 100 µM

###

# Test system: NCI-H23 lung
# assay info: NCI tumour cell line growth inhibition, 48 h
recorded metric: TGI

Recorded TGI, per entry:
> print(dat)
                                   compound    result
1  Cc1ccc(S(=O)(=O)NC(CCCCN)C(=O)CCl)cc1 (centres undefined)  > 100 µM
2  CCO/C=N/C1=C(C#N)C(c2ccc(OC)c(OC)c2)c2c(-c3ccccc3)nn(-c3ccccc3)c2O1 (centres undefined)   31.1 µM
3  COc1ccc2nccc(C3OC(=O)N4CCC(=O)CC34)c2c1 (centres undefined)  > 100 µM
4  CC1(C)CC(=O)C2=C(C1)OC1=C(CC(C)(C)CC1=O)C2c1ccccc1Cl (centres undefined)  > 100 µM
5    CC(=O)/C=C\C(=O)NNS(=O)(=O)c1ccc(C)cc1  > 100 µM

Parameters: items (list). Returns: TGI for each item.
1. CC(C)(O)C1CC(=O)C(C)(C2C(O)CC3(C)C4CC=C5C(CCC(O)C5(C)C)C4(C)C(=O)CC23C)O1 (centres undefined)
2. CC1=CC(=O)C[C@]2(C)[C@@H](O)CC(C(C)CO)C[C@@H]12 (some centres undefined)
3. COc1ccc(C2CC(c3cccc(Nc4ccnc5cc(Cl)ccc45)c3)=NN2c2ccc(Cl)cc2)cc1 (centres undefined)
4. Clc1ccc(CCN2CCN(CCCc3ccccc3)CC2)cc1Cl
5. C/C=C\C(C)=C/C(C)C(=O)CC(O)CC1CC(=O)NC(=O)C1 (centres undefined)
6. CCS(=O)(=O)Nc1ccc(Oc2ccc(F)cc2F)c(-c2cn(C)c(=O)c3[nH]ccc23)c1
7. CC(C)(C)OC(=O)N(CCCN)CCCCN(CCCN)C(=O)OC(C)(C)C
8. Nc1c2ccccc2nc2ccc(C(=O)Nc3ccc(S(N)(=O)=O)cc3)cc12

-- reply
> 100 µM
> 100 µM
> 100 µM
31.6 µM
> 100 µM
13.5 µM
> 100 µM
> 100 µM
